# System: Escherichia coli
# procedure.text: Antimicrobial activity against Escherichia coli 389 after 18 hrs by twofold serial microbroth dilution method
# Format: functional
# measurement.parameters: Escherichia coli, 389, 18 h
Entries and their MIC
assay.endpoint: MIC (µg/mL)

>  <compound>
C[C@H]1[C@H](C)CC[C@]2(C)CC[C@]3(C(=O)O)C(=CC[C@@H]4[C@@]5(C)[C@H](O)C[C@H](O)C(C)(C)[C@@H]5CC[C@]43C)[C@H]12

>  <readout.relation>
=

>  <value.measured>
16

$$$$
>  <compound>
CO[C@H]1OC(=O)[C@H](C)[C@@H]2[C@@H]1[C@@H](CO)C[C@@H]2O [CAIOPHORAENIN]

>  <readout.relation>
>

>  <value.measured>
128

$$$$
>  <compound>
CC1(C)S[C@@H]2[C@H](NC(=O)Cc3ccccc3)C(=O)N2[C@H]1C(=O)O [PENICILLIN G]

>  <readout.relation>
=

>  <value.measured>
4

$$$$
>  <compound>
C[C@@H]1[C@@H]2COC(=O)C[C@H]2C[C@@H]1O [ISOBOONEIN]

>  <readout.relation>
>

>  <value.measured>
128

$$$$
